Value source: ChEMBL document CHEMBL5137011

assay: AUC(0 to infinity) in mouse at 10 mg/kg, iv administered as bolus injection measured upto 24 hrs by LC-MS analysis; type: ADME, organism-based; set-up: time < 24 hrs, dose 10 mg/kg, route iv; settings: in vivo
Readout Kind: AUC(0-inf) (ng·h/mL)
Lab book: enter the figure in ng·h/mL, no units written.

Exam item: For the compound "C=C[C@]1(C)C[C@@H](OC(=O)CSc2nnc(-c3ccccc3F)[nH]2)[C@]2(C)[C@H](C)CC[C@]3(CCC(=O)[C@H]32)[C@@H](C)[C@@H]1O" , give its reported AUC(0-inf).
Marked response: 1840

* * *

assay: Clearance in mouse at 10 mg/kg, iv administered as bolus infection measured upto 24 hrs by LC-MS analysis; type: ADME, organism-based; details: in vivo
Readout Kind: clearance (mL/min/kg)
Report as a plain number; the unit mL/min/kg is understood.

Exam item: Check the records and state clearance for "C=C[C@]1(C)C[C@@H](OC(=O)CSc2nnc(-c3ccccc3F)[nH]2)[C@]2(C)[C@H](C)CC[C@]3(CCC(=O)[C@H]32)[C@@H](C)[C@@H]1O"
Marked response: 90.5

* * *

assay: AUC(0 to t) in mouse at 10 mg/kg, iv administered as bolus injection measured upto 24 hrs by LC-MS analysis; type: ADME, organism-based; design: dose 10 mg/kg, time < 24 hrs, route iv; settings: in vivo
Readout Kind: AUC(0-t) at 24 h

Exam item: Answer with reported AUC(0-t) at 24 h of "C=C[C@]1(C)C[C@@H](OC(=O)CSc2nnc(-c3ccccc3F)[nH]2)[C@]2(C)[C@H](C)CC[C@]3(CCC(=O)[C@H]32)[C@@H](C)[C@@H]1O"
Marked response: 1830 ng·h/mL

* * *

tested on: 16HBE14o-; experiment: Cytotoxicity against human 16HBE14o- cells assessed as reduction in cell viability at 8 ug/ml incubated for 16 hrs by MTT assay; type: toxicity, cell-based; conditions: dose 8 µg/ml
Readout Kind: Activity

C=C[C@]1(C)C[C@@H](OC(=O)CSc2nnc(-c3ccc(F)cc3)[nH]2)[C@]2(C)[C@H](C)CC[C@]3(CCC(=O)[C@H]32)[C@@H](C)[C@@H]1O; Non-Toxic
C=C[C@]1(C)C[C@@H](OC(=O)CSc2nnc(-c3ccccc3OC)[nH]2)[C@]2(C)[C@H](C)CC[C@]3(CCC(=O)[C@H]32)[C@@H](C)[C@@H]1O; Non-Toxic
C=C[C@]1(C)C[C@@H](OC(=O)CSc2nnc(-c3ccccc3F)[nH]2)[C@]2(C)[C@H](C)CC[C@]3(CCC(=O)[C@H]32)[C@@H](C)[C@@H]1O; Non-Toxic
C=C[C@]1(C)C[C@@H](OC(=O)CSc2nnc(-c3ccc(OC)cc3)[nH]2)[C@]2(C)[C@H](C)CC[C@]3(CCC(=O)[C@H]32)[C@@H](C)[C@@H]1O; Non-Toxic
C=C[C@]1(C)C[C@@H](OC(=O)CSc2nnc(-c3cccc([N+](=O)[O-])c3)[nH]2)[C@]2(C)[C@H](C)CC[C@]3(CCC(=O)[C@H]32)[C@@H](C)[C@@H]1O; Non-Toxic

Exam item: # return recorded Activity for entry "C=C[C@]1(C)C[C@@H](OC(=O)CSc2nnc(-c3cccc(OC)c3)[nH]2)[C@]2(C)[C@H](C)CC[C@]3(CCC(=O)[C@H]32)[C@@H](C)[C@@H]1O"
Marked response: Non-Toxic
